assay: protease stability score; higher = more stable; yeast display proteolysis, trypsin and chymotrypsin;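 also: relative to predicted unfolded state with 0 unfolded-like and 1 meaning tenfold more protease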
quantity: protease stability score
Answers are plain numbers.

Below, 5 sequences whose answers are already recorded.
biopolymer.sequence	protease stability score
DESEERSRHATELFIRAIHTGDEHTLMNLLDPHVRTHYGDKEVHGRENVVKVMLELLHKLGADHVRWEYHDFKDINGRLHMDWRLHVVVGDKELTLQTHIITEKINGRWHSKYMEIR	0.183
SEEEKLFKIMMKLLLEQTETGDEHFLKHQFDPHARLEIGEFDLHGWEFMDEHVRHWRYRDMELRRLEFQGNKIETRGLIIGEYNGRRLEISVRMIVLKIDGKWIIKHVHIH	1.42
SEEERDAKEAVHLLLDMIDTGDFERITKYMDPNTRSRVGDKNDHGRHWLRHRRRHAGHDNIHVHLTRVDIFDGVVQINGRLDVDGKEIEVHWFIRKINGRWIVEEVHIQ	0.367
SDLEKLAEHTAKEIIHYWLTGDWKSLTELADPHVKLDIDINGRREHHHGWERVIEFFDRFRKRIDHHHIHIDSIDIQGDKVHIDGKLHVHQGDKDLTIKMTIIVIVVDGRIKSLRVIIL	2.13
DEEEENSRRAIEIVLQHMETGDEKTLEELVDPHVKLHYGDKTSHGRHHVAHLIMRLGVKHSRVEHVDSQGDKVFFFTRMRIGDKHFDTRVILLKVDGKWQIHELKFD	1.96

Enquiry: Report protease stability score for DEHENVMHDAIENIEHMIHTGDEHISERLLDPNVKLDVNGRRFHGWEEFNKWLHHMGADVVDHKRLESQGDKVHTDGRVFFNGREYDSEINSLKVNGRWLITEVRIH please.
Return: 0.337

###

assay: protease stability score; higher = more stable; yeast display proteolysis, trypsin and chymotrypsin;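 also: relative to predicted unfolded state with 0 unfolded-like and 1 meaning tenfold more protease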
Rule: protease stability score under 1 gives not met, otherwise met.

Check out these entries, answers already filled in.
biopolymer.sequence	class
SDDERLAHHLVELLLHNIETGDFRMLMHLIDPNVRIDINGVEIHGREEWHKHLRTLGFDHFELHIDSIDAFDGKVIVHTTIRIKYNGVHFEKKTHLIAEKFDGRWYMREIRER	met
DEDTESATKALQLFIHLFITGDEEQLLRLLDPNARNDIGDYHRHGREFLEFFVERVKNVTFHLHDMRLELIGDKIHLIIHGDEWVNGVRLRTELVILMEKVNGRWVIRSVRVIFR	met
TEDHRDIYRIVKLLIEFFKTGDFDSLRHLADPNTRLDIGDKHRHGMDLILKEYMDEMHELGVKHFDIKIHDVEIQGDKAQWDLRLHIKVGDKIIELRVILHAVKVNGKWILHKIEFI	met
SEIKEEMDEVSELWQRALETGDEHEVLKLMDPHARIDFDGVDHVGWREVTKSLKHMRIDHIKIRHITVIGNKIDIDGEVNMTVNGQERQETVHIELIVVNGRIRHIRIHLV	not met
SELDTLVEEVAEIIVKYLITGDEDSLLKMLDPNMRTDINGREIHGREVTHEFLRQEKERLGVSRIQMRLESFRVQGDKIIIHGTLHYNGKDFEVIVIIIVWNGRIREIRIEIR	met

In the following, a different sequence is considered.
Enquiry: Threshold query (protease stability score >= 1) on DEDEKFTKEVIELWIRALRTGDEHTLMRLMDPHVRFEDENYSLHGREDVSRWLIKLLVHLRLEESDEHDSKIIGDKAHLHITSNHIFNGKELHMEIHIIVFKINGRWFVHEVRFR
Return: met
